Each record here notes measured EC50.
Tested on: dopamine release
Assay method text: cells
Type: cell-based
Study conditions: read-out: Dopamine Release EC50
Counter-ions that a name gives are not always drawn.
Expressed in nM, but write only the number.

Query: Which measured EC50 belongs to c1cncc(C2C3CCN2CC3)c1 (centres unmarked) [Sample No. 5, 1-aza-7-(3-pyridyl)bicyclo[2.2.1]heptane] , tested on dopamine release?
Response: 4

Query: Which measured EC50 belongs to Brc1cncc(C2CC3CCN2CC3)c1 (racemic) , tested on dopamine release?
Response: 2

Query: Which measured EC50 belongs to CN1CCC[C@H]1c1cccnc1 [Sample No. C-1, (S)-(−)-nicotine, reference compound] , tested on dopamine release?
Response: 115

Query: Which measured EC50 belongs to CCOc1cncc(C2CC3CCN2CC3)c1.Cl.Cl (centres unmarked) [Sample No. 7, dihydrochloride] , tested on dopamine release?
Response: 5

Query: Which measured EC50 belongs to c1cncc([C@@H]2C[C@@H]3CCN2C3)c1 (relative stereo) , tested on dopamine release?
Response: 33

New cases:
Query: Which measured EC50 belongs to c1cncc([C@H]2C[C@@H]3CCN2C3)c1 (relative stereo) , tested on dopamine release?
Response: 6

Query: Which measured EC50 belongs to Nc1cncc(C2CC3CCN2CC3)c1 (centres unmarked) [Sample No. 6, trihydrochloride] , tested on dopamine release?
Response: 7

Query: Which measured EC50 belongs to c1cncc(C2CC3CCN2CC3)c1 (racemic) , tested on dopamine release?
Response: 2

* * *

Each record here notes measured Muscle Effect Ecmax.
System: muscle-type nicotinic acetylcholine receptors (Homo sapiens, UniProt P02708+P07510+Q07001)
Construct: endogenous in cells; host or cells: TE671/RD (own knowledge of the cited US 5,597,919)
Sequence (P02708 21-457): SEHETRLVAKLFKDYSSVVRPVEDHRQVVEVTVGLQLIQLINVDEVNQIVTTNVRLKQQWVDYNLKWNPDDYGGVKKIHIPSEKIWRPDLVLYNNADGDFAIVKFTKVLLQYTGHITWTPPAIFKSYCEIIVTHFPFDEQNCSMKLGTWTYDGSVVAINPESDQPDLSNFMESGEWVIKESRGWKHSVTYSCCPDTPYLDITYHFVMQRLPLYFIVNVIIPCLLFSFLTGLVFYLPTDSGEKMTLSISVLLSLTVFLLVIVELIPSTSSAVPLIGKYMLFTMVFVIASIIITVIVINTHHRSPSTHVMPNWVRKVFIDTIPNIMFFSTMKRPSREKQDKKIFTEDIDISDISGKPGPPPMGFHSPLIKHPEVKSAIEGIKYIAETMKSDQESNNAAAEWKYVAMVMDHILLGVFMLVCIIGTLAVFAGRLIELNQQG
Sequence (P11230 24-501 partner): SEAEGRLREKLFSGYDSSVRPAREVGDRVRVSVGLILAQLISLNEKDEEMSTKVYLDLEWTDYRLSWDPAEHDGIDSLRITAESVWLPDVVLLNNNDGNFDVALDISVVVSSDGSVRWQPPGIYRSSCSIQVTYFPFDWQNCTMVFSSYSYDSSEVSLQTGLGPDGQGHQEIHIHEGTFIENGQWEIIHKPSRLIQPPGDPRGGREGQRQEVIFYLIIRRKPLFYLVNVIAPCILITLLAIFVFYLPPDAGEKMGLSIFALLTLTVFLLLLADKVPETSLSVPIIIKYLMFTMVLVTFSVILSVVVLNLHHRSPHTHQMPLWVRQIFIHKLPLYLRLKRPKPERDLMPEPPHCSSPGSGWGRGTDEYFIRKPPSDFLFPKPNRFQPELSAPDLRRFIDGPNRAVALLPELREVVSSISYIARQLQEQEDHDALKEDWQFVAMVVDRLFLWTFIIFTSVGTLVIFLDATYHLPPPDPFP
Sequence (Q07001 22-517): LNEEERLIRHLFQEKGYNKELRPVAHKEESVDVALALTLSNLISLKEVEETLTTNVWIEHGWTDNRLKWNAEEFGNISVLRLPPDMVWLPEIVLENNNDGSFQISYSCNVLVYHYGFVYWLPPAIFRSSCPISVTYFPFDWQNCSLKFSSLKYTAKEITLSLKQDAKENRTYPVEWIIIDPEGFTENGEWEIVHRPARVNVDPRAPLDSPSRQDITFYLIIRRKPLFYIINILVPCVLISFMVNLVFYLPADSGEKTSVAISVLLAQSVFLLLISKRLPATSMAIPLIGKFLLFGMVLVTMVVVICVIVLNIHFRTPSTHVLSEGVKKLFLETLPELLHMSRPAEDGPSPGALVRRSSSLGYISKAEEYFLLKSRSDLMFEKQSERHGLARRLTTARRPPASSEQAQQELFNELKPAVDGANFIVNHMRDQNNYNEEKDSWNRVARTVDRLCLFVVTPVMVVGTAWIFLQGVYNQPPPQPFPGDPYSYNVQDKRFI
Sequence (P07510 23-517): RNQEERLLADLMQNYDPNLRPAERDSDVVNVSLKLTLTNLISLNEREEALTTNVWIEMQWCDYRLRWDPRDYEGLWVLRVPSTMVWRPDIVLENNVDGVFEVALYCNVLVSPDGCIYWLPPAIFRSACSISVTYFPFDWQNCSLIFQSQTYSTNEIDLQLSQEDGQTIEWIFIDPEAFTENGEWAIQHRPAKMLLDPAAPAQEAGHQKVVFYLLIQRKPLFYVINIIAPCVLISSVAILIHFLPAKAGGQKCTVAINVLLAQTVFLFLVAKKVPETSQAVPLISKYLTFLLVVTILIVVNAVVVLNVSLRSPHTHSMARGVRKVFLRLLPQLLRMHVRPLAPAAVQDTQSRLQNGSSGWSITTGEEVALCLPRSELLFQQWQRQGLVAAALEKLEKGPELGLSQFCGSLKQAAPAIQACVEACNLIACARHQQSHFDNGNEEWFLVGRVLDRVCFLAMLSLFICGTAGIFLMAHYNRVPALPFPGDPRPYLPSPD
Assay method text: cell-based
Study conditions: maximal activation as percentage of that induced by (S)-(-)-nicotine
Where a name gives a salt, the structure may show the parent alone.
Expressed in %, but write only the number.

Query: Which measured Muscle Effect Ecmax value corresponds to c1cncc(C2C3CCN2CC3)c1 (stereo not drawn) [Sample No. 5, 1-aza-7-(3-pyridyl)bicyclo[2.2.1]heptane] ?
Response: 130

New cases:
Query: Which measured Muscle Effect Ecmax value corresponds to Nc1cncc(C2CC3CCN2CC3)c1 (stereo not drawn) [Sample No. 6, trihydrochloride] ?
Response: 100

Query: Which measured Muscle Effect Ecmax value corresponds to c1cncc([C@@H]2C[C@@H]3CCN2C3)c1 (relative stereo) [Sample No. 4] ?
Response: 130

Query: Which measured Muscle Effect Ecmax value corresponds to c1cncc([C@H]2C[C@@H]3CCN2C3)c1 (relative stereo) [Sample No. 3] ?
Response: 130

Query: Which measured Muscle Effect Ecmax value corresponds to CCOc1cncc(C2CC3CCN2CC3)c1.Cl.Cl (stereo not drawn) [Sample No. 7] ?
Response: 137

Query: Which measured Muscle Effect Ecmax value corresponds to Brc1cncc(C2CC3CCN2CC3)c1 (racemic) [Sample No. 2] ?
Response: 133

* * *

System: ganglionic-type nicotinic acetylcholine receptors (Rattus norvegicus, UniProt P04757+P12392)
Sequence (P04757 26-499): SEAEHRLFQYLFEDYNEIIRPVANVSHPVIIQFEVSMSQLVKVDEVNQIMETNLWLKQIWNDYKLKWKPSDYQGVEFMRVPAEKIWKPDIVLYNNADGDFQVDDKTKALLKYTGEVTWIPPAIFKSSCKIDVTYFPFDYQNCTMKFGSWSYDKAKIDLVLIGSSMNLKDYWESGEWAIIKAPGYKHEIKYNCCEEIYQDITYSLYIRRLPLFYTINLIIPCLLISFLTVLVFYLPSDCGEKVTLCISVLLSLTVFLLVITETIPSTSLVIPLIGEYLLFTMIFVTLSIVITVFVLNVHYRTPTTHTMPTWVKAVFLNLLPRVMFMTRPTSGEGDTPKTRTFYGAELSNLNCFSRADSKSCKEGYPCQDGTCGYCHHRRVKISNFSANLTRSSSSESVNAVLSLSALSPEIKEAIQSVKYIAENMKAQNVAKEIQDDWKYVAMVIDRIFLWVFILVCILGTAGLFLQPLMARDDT
Sequence (P12392 21-495): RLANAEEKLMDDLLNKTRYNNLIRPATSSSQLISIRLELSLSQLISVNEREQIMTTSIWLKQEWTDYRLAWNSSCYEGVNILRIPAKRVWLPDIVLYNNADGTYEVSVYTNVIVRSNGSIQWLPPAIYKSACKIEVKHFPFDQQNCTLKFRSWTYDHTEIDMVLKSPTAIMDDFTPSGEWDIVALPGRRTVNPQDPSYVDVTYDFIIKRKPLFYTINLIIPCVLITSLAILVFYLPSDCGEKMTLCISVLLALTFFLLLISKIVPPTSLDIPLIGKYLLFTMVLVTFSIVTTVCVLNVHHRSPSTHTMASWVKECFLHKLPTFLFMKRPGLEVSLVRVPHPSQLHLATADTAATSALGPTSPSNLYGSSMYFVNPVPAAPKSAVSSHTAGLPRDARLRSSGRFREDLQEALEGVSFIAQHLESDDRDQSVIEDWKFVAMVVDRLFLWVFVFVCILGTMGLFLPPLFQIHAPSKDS
Assay method text: cell-based
Study conditions: read-out: Ganglion Effect Ecmax
Where a name gives a salt, the structure may show the parent alone.
Each record here notes measured Emax.
Expressed in %, but write only the number.

Query: Which measured Emax value corresponds to c1cncc(C2CC3CCN2CC3)c1 (racemic) ?
Response: 85

Query: Which measured Emax value corresponds to c1cncc(C2C3CCN2CC3)c1 (stereo not drawn) [Sample No. 5, 1-aza-7-(3-pyridyl)bicyclo[2.2.1]heptane] ?
Response: 120

Query: Which measured Emax value corresponds to CCOc1cncc(C2CC3CCN2CC3)c1.Cl.Cl (stereo not drawn) [Sample No. 7, dihydrochloride] ?
Response: 86

Query: Which measured Emax value corresponds to Brc1cncc(C2CC3CCN2CC3)c1 (racemic) ?
Response: 106

New cases:
Query: Which measured Emax value corresponds to CC(C)Oc1cncc(C2CC3CCN2CC3)c1 (stereo not drawn) [Sample No. 8, dihydrochloride] ?
Response: 94

Query: Which measured Emax value corresponds to c1cncc([C@H]2C[C@@H]3CCN2C3)c1 (relative stereo) ?
Response: 100
